Numbers sourced from ChEMBL document CHEMBL4689842.

test system: HEK-293T; assay: Multiplex assay against HEK293T; format: toxicity, cell-based; details: human, 12 h, 10 µM, compound concentration 10 uM, replicate 1
For each entry below, report its Population Fragmented Nuclei (%) value.
Form field: result (number plus unit)

Below, 3 compounds whose answers are already recorded.
CCCS(=O)(=O)Nc1ccc(F)c(C(=O)c2c[nH]c3ncc(Cl)cc23)c1F: 13%
O=C(Nc1ccc(-n2nc(-c3cccnc3)cc2C(F)(F)F)cn1)c1ccc(-c2ccccc2)c(F)c1: 12%
O=C1NC(=O)C(c2cnc3ccccn23)=C1c1cn2c3c(cc(F)cc13)CN(C(=O)N1CCCCC1)CC2: 8%

Challenge: Give the reported Population Fragmented Nuclei (%) for CCn1c(=O)c(-c2ccc(-c3cncs3)cc2Cl)cc2cnc(Nc3ccc(N4CCN(C)CC4)cc3)nc21 (system: HEK-293T).
Response given: 47%

----------
system: HEK-293T; assay: Multiplex assay against HEK293T; type: toxicity, cell-based; details: human, 24 h, 1 µM, compound concentration 1 uM, replicate 1
For each entry below, report its Population Pyknosed Nuclei (%) value.
Give bare numbers, in %.

Below, 2 molecules whose answers are already recorded.
CN1CCN(C(=O)C(C)(C)c2ccc(C(=O)Nc3cn4cc(-c5cc(C(C)(C)C)cc(C(C)(C)C)c5)ccc4n3)cc2)CC1: 10
Cc1cc(C)c(S(=O)(=O)N(Cc2ccc(-c3cccc(S(C)(=O)=O)c3)cc2)Cc2ccc(C(F)(F)F)o2)c(C)c1: 42

I would be grateful if you could provide Population Pyknosed Nuclei (%) for each of the following entries.
1. NC(=O)c1cccc(-c2cc(Nc3ccc(OC(F)(F)F)cc3)ncn2)c1
2. CN1C2CCC1CC(OC(c1ccc(F)cc1)c1ccc(F)cc1)C2.Cl (configuration not stated)
3. CCN1CCN(c2ccc(Nc3cc(N(C)C(=O)Nc4c(Cl)c(OC)cc(OC)c4Cl)ncn3)cc2)CC1
4. CCNc1cc(N[C@H]2CC[C@H](O)CC2)nc(Nc2ccc3c(ccn3Cc3ccccc3)c2)n1
5. Cn1nc(C(F)(F)F)cc1-c1cnc(N2CCc3cc(S(=O)(=O)Nc4c(F)cc(Cl)cc4F)cc(N4CCCC4=O)c32)nc1
6. COC(=N)c1nc2ccc3ncnc(Nc4ccc(OC)cc4F)c3c2s1
7. CCc1cccc(CC)c1NC(=O)c1nn(C)c2c1CCc1cnc(Nc3ccc(C(=O)NC4CCN(C)CC4)cc3OC(F)(F)F)nc1-2
8. O=C1NC(=O)C(c2cnc3ccccn23)=C1c1cn2c3c(cc(F)cc13)CN(C(=O)N1CCCCC1)CC2

Response given:
[5, 64, 23, 13, 8, 13, 36, 59]

I would be grateful if you could provide Population Pyknosed Nuclei (%) for each of the following entries.
1. O=C(Nc1ccc(Cl)cc1)Nc1cccc(-c2cccc(N3CCCC3)n2)c1
2. CCCn1c(=O)c2[nH]c(-c3cnn(Cc4cccc(C(F)(F)F)c4)c3)nc2n(CC)c1=O
3. CCn1cc(-c2ccnc3[nH]c(-c4cccc(CN(C)C)c4)cc23)c(-c2ccc(NC(=O)N(C)C)cc2)n1
4. CN(C)C(=O)C(CCN1CCC(O)(c2ccc(Cl)cc2)CC1)(c1ccccc1)c1ccccc1.Cl [LOPERAMIDE HYDROCHLORIDE]
5. Cl.O=c1c2cccn2c2ccccc2n1CCCN1CCC(c2ccc(Cl)cc2)CC1
6. COc1ccc(S(=O)(=O)N(CCO)c2ccccc2CN(C)C/C=C/c2ccc(Cl)cc2)cc1.O=P(O)(O)O
7. CCCS(=O)(=O)Nc1ccc(F)c(C(=O)c2c[nH]c3ncc(Cl)cc23)c1F

Response given:
1. 43
2. 70
3. 12
4. 53
5. 37
6. 60
7. 7
